All figures here come from ChEMBL document CHEMBL1157539.

- System: Plasmodium falciparum
- measurementProtocol: GSK_TCMDC: Inhibition of Plasmodium falciparum Dd2 in whole red blood cells, using parasite LDH activity as an index of growth. Test compounds present at 2uM
- Assay type: functional
Catalogue of compounds with associated Inhibition
Answer in %, number only, no unit symbol.

Example compounds with recorded Inhibition:
compound	testTarget	obsValue
Cc1cccc(C(=O)Nc2ccnc(N(C)C3CCN(CC(C)C)CC3)c2)c1.O=C(O)C(F)(F)F	Plasmodium falciparum	6
Cc1cc(N)nc2cc(CNCCc3ccccc3Br)ccc12.Cl	Plasmodium falciparum	93
O=C(Nc1cc(C(F)(F)F)cc(C(F)(F)F)c1)N1CCC(CN2CCC(c3c[nH]c4ccccc34)CC2)CC1	Plasmodium falciparum	99
COCC(=O)N(Cc1cccc(-c2ccc(CNCCc3ccccc3)cc2)c1)C1CCN(Cc2ccccc2)CC1.O=C(O)C(F)(F)F	Plasmodium falciparum	45
Br.CC[C@H]1CN2CC[C@H]1C[C@H]2[C@H](O)c1ccnc2ccc(OC)cc12	Plasmodium falciparum	62
CC(C)CNCc1cccc(-c2ccc(CN(C(=O)c3cccs3)C3CCN(Cc4ccccc4)CC3)cc2)c1.O=C(O)C(F)(F)F	Plasmodium falciparum	40

Next compound, please.
Can you look up the measured Inhibition of CCC(C)(C)NC(C)C(O)c1ccc(C(F)(F)F)cc1.Cl (stereo not drawn) for me? 90
